# target-or-system: tetanus neurotoxin (TeNT), authentic tetanus holotoxin (Clostridium tetani, UniProt P04958 2-1315)
# Sequence (P04958 2-457 limits assumed, chain 1 of 2): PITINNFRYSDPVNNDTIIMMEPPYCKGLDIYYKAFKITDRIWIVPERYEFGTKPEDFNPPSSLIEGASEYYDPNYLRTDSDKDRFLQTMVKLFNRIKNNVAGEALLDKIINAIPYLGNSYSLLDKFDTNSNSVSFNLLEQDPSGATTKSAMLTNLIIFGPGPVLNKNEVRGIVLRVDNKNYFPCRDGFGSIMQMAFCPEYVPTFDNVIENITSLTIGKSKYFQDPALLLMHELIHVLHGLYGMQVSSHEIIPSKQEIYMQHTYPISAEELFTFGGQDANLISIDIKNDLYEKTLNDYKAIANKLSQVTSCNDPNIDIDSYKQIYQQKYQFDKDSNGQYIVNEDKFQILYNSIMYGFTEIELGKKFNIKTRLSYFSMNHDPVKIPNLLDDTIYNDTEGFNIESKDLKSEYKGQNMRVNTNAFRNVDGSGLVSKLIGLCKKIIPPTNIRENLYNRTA
# Sequence (P04958 458-1315 limits assumed, chain 2 of 2): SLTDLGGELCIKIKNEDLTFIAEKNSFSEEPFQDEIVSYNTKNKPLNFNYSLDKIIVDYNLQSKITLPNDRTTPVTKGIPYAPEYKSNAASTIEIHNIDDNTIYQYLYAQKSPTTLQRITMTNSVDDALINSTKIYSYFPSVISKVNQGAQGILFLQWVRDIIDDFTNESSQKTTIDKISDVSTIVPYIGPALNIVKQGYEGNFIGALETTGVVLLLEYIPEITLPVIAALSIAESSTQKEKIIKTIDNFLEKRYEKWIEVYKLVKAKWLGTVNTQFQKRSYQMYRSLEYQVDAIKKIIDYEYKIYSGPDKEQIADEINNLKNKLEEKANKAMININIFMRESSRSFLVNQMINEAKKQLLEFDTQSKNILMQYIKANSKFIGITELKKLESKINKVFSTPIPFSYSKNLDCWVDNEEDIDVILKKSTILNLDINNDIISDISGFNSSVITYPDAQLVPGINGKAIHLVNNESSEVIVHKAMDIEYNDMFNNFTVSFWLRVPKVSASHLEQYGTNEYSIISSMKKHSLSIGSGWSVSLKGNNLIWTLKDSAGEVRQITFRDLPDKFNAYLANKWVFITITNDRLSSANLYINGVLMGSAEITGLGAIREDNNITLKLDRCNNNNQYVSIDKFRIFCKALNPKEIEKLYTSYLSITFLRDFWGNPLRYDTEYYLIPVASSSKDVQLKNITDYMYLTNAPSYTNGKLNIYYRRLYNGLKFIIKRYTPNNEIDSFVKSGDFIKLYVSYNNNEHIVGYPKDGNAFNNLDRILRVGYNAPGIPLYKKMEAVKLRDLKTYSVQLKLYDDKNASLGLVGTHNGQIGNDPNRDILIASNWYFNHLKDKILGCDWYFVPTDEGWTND
# method-description: competition ELISA on TeNT, binder biotinylated; competitor SVT13L; also: test concentration or dose not given here
Record form. Attribute: % inhibition of binding. Fill in for each entry.
Reply with the number and its unit after it.

Requested field: % inhibition of binding. Item: SVT15L-3FW4M (VHH) VHH: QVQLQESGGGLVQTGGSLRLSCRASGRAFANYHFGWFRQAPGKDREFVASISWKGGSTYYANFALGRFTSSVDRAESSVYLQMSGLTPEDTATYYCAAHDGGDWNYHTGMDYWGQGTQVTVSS
-5%

Dear colleague, I am looking for the recorded % inhibition of binding of the following binder: SVT22L (VHH) VHH: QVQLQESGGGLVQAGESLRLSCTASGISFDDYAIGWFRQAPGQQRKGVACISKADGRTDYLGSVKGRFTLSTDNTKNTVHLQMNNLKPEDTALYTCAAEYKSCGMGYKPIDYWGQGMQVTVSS
95%

Quick one: % inhibition of binding for SVT06L (VHH) VHH: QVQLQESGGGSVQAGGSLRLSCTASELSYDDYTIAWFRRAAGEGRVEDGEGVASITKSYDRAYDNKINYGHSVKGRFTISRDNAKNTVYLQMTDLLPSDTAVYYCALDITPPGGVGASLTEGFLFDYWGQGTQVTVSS ?
7%

Could you share which % inhibition of binding value was measured for SVT15L (VHH) VHH: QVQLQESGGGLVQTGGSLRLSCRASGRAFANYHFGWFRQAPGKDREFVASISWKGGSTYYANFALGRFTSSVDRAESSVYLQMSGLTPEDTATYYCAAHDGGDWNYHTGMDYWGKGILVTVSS ?
2%

Quick one: % inhibition of binding of SVT03L (VHH) VHH: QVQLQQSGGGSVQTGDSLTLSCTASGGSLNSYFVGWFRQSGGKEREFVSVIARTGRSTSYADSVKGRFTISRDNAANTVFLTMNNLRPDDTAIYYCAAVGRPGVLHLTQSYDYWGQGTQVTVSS ?
23%

Field request: % inhibition of binding | item: SVT02L (VHH) VHH: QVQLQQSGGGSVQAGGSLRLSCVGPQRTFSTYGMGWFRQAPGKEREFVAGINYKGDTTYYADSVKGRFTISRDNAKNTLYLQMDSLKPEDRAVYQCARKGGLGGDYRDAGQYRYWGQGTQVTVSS
21%
